Target: UniProt:P06733
READOUT_NAME: IC50 (µM)
Please respond with the number in µM and leave the unit unwritten.

IC50 on UniProt:P06733 for O=CC(O)COP(=O)(O)O (racemic) is 113

====

Target: PKM2 (Homo sapiens)
Sequence (P14618 2-531): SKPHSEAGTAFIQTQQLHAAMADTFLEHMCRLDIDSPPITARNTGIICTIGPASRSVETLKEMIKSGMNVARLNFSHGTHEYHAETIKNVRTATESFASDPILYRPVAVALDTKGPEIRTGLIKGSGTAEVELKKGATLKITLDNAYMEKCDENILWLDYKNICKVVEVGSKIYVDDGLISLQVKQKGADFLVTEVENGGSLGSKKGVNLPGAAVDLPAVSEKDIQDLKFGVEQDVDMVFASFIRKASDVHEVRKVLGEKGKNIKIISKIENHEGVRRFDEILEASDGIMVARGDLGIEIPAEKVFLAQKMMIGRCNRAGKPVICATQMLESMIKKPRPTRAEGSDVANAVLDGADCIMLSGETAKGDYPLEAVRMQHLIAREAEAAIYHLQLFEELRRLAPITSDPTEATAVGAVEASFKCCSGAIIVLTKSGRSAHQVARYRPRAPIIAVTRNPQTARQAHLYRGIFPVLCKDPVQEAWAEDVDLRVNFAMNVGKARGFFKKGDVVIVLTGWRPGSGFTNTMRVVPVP
READOUT_NAME: Kd

Kd on PKM2 (Homo sapiens) for O=C(O)[C@H](O)COP(=O)(O)O is 0.26 µM

====

Target: α-enolase (ENO1) (Homo sapiens, UniProt P06733, K330E)
Sequence (P06733 whole entry K330E): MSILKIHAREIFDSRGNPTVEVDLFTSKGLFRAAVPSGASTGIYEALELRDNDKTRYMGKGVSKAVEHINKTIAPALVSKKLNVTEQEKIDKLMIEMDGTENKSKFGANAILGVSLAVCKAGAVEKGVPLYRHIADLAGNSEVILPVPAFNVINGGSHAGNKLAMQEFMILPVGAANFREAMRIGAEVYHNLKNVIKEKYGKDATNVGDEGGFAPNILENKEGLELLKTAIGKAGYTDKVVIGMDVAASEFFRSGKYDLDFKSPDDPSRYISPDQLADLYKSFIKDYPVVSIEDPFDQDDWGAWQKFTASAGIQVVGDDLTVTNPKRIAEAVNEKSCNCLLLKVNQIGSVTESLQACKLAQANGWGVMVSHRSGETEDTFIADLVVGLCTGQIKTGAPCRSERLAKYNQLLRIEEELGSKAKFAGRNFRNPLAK
Assay: PKM1-coupled luminescent Kinase-Glo assay
Format: biochemical
READOUT_NAME: IC50 (µM)
Please respond with the number in µM and leave the unit unwritten.

Kindly note the recorded IC50 for O=CC(O)COP(=O)(O)O (racemic) , which is 1170
